Reference for the values: patent US10744104B2

Target: NEP (Homo sapiens (Human), UniProt P08473)
Sequence (P08473 whole entry): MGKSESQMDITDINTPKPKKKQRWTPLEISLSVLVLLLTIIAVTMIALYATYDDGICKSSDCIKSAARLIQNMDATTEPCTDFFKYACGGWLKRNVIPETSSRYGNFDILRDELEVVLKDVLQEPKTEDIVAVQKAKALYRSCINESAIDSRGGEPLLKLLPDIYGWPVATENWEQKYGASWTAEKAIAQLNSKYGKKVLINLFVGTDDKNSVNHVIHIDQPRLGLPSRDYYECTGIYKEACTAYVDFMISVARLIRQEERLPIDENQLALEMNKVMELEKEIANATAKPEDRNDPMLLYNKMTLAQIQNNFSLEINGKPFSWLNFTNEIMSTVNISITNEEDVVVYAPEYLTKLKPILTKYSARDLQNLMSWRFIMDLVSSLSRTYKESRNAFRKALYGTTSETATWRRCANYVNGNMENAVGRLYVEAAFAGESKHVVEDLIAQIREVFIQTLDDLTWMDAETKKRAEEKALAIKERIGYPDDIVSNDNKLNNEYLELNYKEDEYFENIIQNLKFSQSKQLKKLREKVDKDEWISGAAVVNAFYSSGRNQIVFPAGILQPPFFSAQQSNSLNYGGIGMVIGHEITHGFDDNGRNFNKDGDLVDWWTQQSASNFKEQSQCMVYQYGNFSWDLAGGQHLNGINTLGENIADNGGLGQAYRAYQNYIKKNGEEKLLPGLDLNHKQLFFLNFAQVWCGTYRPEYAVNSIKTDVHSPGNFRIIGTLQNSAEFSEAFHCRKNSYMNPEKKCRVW
pKi: −log10 of the molar value.
Property Name: pKi

compound="O=C(N[C@H](Cc1ccc(-c2cccc(Cl)c2)cc1)C[C@@H](O)C(=O)O)C(=O)OCCC(F)(F)F [Example 2N]" system_tested="NEP (Homo sapiens (Human), UniProt P08473)" property_name=pKi result="≥ 9.00"
